Each entry below carries its recorded binding ELISA (OD 450 nm).
# system under test: recombinant PcrV protein (rPcrV), strain PAO1, amino acid residues 1-294, C-terminal His6 (Pseudomonas aeruginosa strain PAO1)
# assay method text: ELISA, periplasmic extract on biotinylated rPcrV
Give your result in OD 450 nm as a bare value.

Here is how some binders turned out for binding ELISA (OD 450 nm).
| binder | binding ELISA (OD 450 nm) |
| --- | --- |
| Nanobody 1E11 (VHH, also called 01E11) VHH: EVQLVESGGGLVQPGGSLRLSCAASGSTRSVNPMAWFRQAPGRQREWVATISRSGYATYADSVKGRFTISGDNAKSSVYLQMNSLKPEDTAVYYCVTGTYWGQGTLVTVSS | 2.56 |
| Nanobody 3B11 (VHH) VHH: EVQLVESGGGLVQAGGSLRLSCAASGFTFDDYVIGWFRQAPGKEREGVSCISRLDGRTYYTDSVKGRFTISSDNAKNTVYLQMNSLKPEDTAVYYCALEPRYTGDYYPVHPELYDYWGQGTQVTVSS | 0.55 |
| Nanobody 4C03 (VHH) VHH: EVQLVESGGGLVQAGGSLRLSCVISASTVRNYDMGWFRQAPGKEREFVAAIDWSGGSTRYADSVKGRFTVSRDNAKNTVYLQMNSLKPEDTAVYYCVAAGFYNNYLRTAPNDWNYWGQGTLVTVSS | 0.89 |
| Nanobody 6B05 (VHH, also called 06B05) VHH: EVQLVESGGGLVQPGGSLRLSCAASGSIFSINTMGWYRQAPGKQRELVSTITSNLVPHYADSVQGRFTISRDNARNTVYLQMNSLKPQDTAHYYCNAWARSSGATPYTNYWGQGTLVTVSS | 2.55 |
| Nanobody 2G09 (VHH) VHH: EVQLVESGGGLVQPGGSLRLSCAASGSFGDNYELYAMTWFRQAPGERRDFVASVTGDGSTSYADSVKDRFTISRDNAKKLMYLQMNSLKPEDTAVYYCRLLNYWGQGTLVTVSS | 2.37 |

Entry under review: Nanobody 7C10 (VHH) VHH: EVQLVESGGGLVQAGGSLRLSCTASGRTLSSYTMGWFRQAPGTEREFVAAMTRSGFNTYYADSVKGRFTISRDSTENTMALQMSSLKPEDTAVYYCTAGRGLTSYRADYWGQGTLVTVSS . Reported binding ELISA (OD 450 nm)?
2.55

Param item = Nanobody 7E09 (VHH, also called 07E09) VHH: EVQLVESGGGLVQAGGSLRLSCAASGRTFSSYIMGWFRQAPGKAREFVADITWGQRPYYADSVKGRFTISRDNAKNTVYLEMNSLKPEDTAVYYCAADLGVVIREEHAYWGQGTLVTVSS ; retrieve measured binding ELISA (OD 450 nm).
2.59

binding ELISA (OD 450 nm) lookup needed for Nanobody 4G10 (VHH) VHH: EVQLVESGGGLVQAGGSLRLSCVISEDGVRNYDMGWFRQAPGKEREFVATINWSGGSTNYADSVKGRFTVSRDNAKNTMYLQMDSLKPEDTAVYYCVAAGFYNNYLRTAPNDWNDWGQGTQVTVSS , thanks.
2.6
